Target: Phenylethanolamine N-methyltransferase (Homo sapiens)
Sequence (P11086 whole entry): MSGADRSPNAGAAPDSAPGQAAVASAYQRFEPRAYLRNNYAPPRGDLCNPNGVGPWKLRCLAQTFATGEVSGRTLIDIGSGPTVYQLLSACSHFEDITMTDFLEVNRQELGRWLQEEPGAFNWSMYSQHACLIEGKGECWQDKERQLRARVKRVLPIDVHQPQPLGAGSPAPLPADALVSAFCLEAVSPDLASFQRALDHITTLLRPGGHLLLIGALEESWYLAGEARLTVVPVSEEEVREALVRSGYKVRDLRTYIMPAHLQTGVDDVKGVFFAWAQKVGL
Result type: Ki (nM)

compound="CC(N)c1cccc(Cl)c1Cl (stereo unspecified)" result_type=Ki recorded_result=90
